Origin of the recorded values: ChEMBL document CHEMBL1121923

Organism: Bos taurus
experimentSummary: Thermal denaturation (deltaTm) of compound against calf thymus DNA was measured
Assay type: ADME
condition: cattle, in vitro

inputSmiles: CCCOc1cc(C(=O)N[C@@H]2C(=O)N[C@H](C(C)C)C(=O)N3CCC[C@H]3C(=O)N(C)CC(=O)N(C)[C@@H](C(C)C)C(=O)O[C@@H]2C)c2nc3c(C(=O)N[C@@H]4C(=O)N[C@H](C(C)C)C(=O)N5CCC[C@H]5C(=O)N(C)CC(=O)N(C)[C@@H](C(C)C)C(=O)O[C@@H]4C)c(N)c(=O)c(C)c-3oc2c1C
Delta Tm: 3.5
--
inputSmiles: CCCCNc1c(C(=O)N[C@@H]2C(=O)N[C@H](C(C)C)C(=O)N3CCC[C@H]3C(=O)N(C)CC(=O)N(C)[C@@H](C(C)C)C(=O)O[C@@H]2C)c2nc3c(C(=O)N[C@@H]4C(=O)N[C@H](C(C)C)C(=O)N5CCC[C@H]5C(=O)N(C)CC(=O)N(C)[C@@H](C(C)C)C(=O)O[C@@H]4C)ccc(C)c3oc-2c(C)c1=O
Delta Tm: 0.2
